Numbers sourced from paper PMC6681021.

Assay: Hepatic first-pass effect: 30-min intravenous vs intraportal infusion in rats
Type: in vivo, Sprague-Dawley rats
Settings: Sprague-Dawley, rat, plasma; 30-min intraportal infusion, 10 mg/kg (n = 7)
QUANTITY_NAME: clearance (mL/min/kg)
Write the value in mL/min/kg as a bare number.

stdin: Please report the measured clearance for C[C@@H]1CCN(C(=O)CC#N)C[C@@H]1N(C)c1ncnc2[nH]ccc12 [tofacitinib]
stdout: 43.8

---

Assay: Pharmacokinetics after 1-min intravenous infusion of tofacitinib to rats
Assay type: in vivo, Sprague-Dawley rats
Details: male, Sprague-Dawley, rat; range over intravenous doses, based on plasma data
QUANTITY_NAME: clearance

stdin: Please report the measured clearance for C[C@@H]1CCN(C(=O)CC#N)C[C@@H]1N(C)c1ncnc2[nH]ccc12
stdout: 14.5 to 36.3 mL/min/kg

---

Test: Pharmacokinetics after 1-min intravenous infusion of tofacitinib to rats
Assay type: in vivo, Sprague-Dawley rats
Conditions: male, Sprague-Dawley, rat, plasma; iv 5 mg/kg
QUANTITY_NAME: CL renal (mL/min/kg)
Write the value in mL/min/kg as a bare number.

stdin: Please report the measured CL renal for C[C@@H]1CCN(C(=O)CC#N)C[C@@H]1N(C)c1ncnc2[nH]ccc12
stdout: 2.69

---

Assay: Pharmacokinetics after oral administration of tofacitinib to rats
Assay type: in vivo, Sprague-Dawley rats
Conditions: male, Sprague-Dawley, rat, plasma; oral 20 mg/kg
QUANTITY_NAME: Tmax (min)
Write the value in min as a bare number.

stdin: Please report the measured Tmax for C[C@@H]1CCN(C(=O)CC#N)C[C@@H]1N(C)c1ncnc2[nH]ccc12 [tofacitinib]
stdout: 15.7

---

Assay: Gastric and intestinal first-pass effect: intraportal infusion, intraduodenal and intragastric instillation in rats
Format: in vivo, Sprague-Dawley rats
Conditions: Sprague-Dawley, rat, plasma, 10 mg/kg, intraduodenal instillation
From the text: Rats were fasted overnight with free access to water. Cannulae were inserted into the carotid artery and the cecal vein [13, 14]. […] All sample collection and processing procedures were identical to those described above. […]
QUANTITY_NAME: Cmax (ng/mL)
Write the value in ng/mL as a bare number.

stdin: Please report the measured Cmax for C[C@@H]1CCN(C(=O)CC#N)C[C@@H]1N(C)c1ncnc2[nH]ccc12
stdout: 1550
